# systemName: Acetylcholinesterase from Electrophorus electricus AChE (Electrophorus electricus)
# Construct: purchased Sigma-Aldrich
# assayRemarks: Cholinesterase activity by the Elmann method, kinetic parameters and Ki on AChE
# Assay type: biochemical
# statedConditions: AChE; inhibitor 3.75 µM; Lineweaver-Burk equation; from increase of Km; mean Ki in μM; read-out: Ki LB
quantityMeasured: Ki (µM)
Answers are plain numbers, in µM.

Problem: Give the reported Ki for CCCCCc1cc(O)c(C/C=C(\C)CCC=C(C)C)c(O)c1C(=O)O [CBGA, cannabigerolic acid] (system: Acetylcholinesterase from Electrophorus electricus AChE (Electrophorus electricus)).
Solution: 14.4

----------
# systemName: Human β-amyloid peptide (1–40) (Homo sapiens)
# Construct: Human β‐amyloid peptide (1–40, cat. ab120479)
# Sequence (P05067 672-711 limits assumed): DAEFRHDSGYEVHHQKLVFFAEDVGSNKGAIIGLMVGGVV
# assayRemarks: Aβ 1–40 self-aggregation inhibition assay (thioflavine T)
# statedConditions: 96 μM peptide, 37°C, 24 h
So I've got a bunch of molecules here, and I need their pIC50 values.
Give bare numbers, as −log10 of the molar value.

Problem: Query pIC50 on Human β-amyloid peptide (1–40) (Homo sapiens) for `C=C(C)[C@@H]1CCC(C)=C[C@H]1c1c(O)cc(CCCCC)c(C(=O)O)c1O`
Solution: 4.24

---
Problem: Which measured pIC50 belongs to `CCCCCc1cc(O)c(C/C=C(\C)CCC=C(C)C)c(O)c1C(=O)O` , tested on Human β-amyloid peptide (1–40) (Homo sapiens)?
Solution: 4.32

----------
Please go through the items and note down their Ki.
# systemName: butirrylcholinesterase from equine serum BuChE (Equus caballus)
# Construct: purchased Sigma-Aldrich; host or cells: equine serum
# assayRemarks: Cholinesterase activity by the Elmann method, kinetic parameters and Ki on BuChE
# Format: biochemical
# statedConditions: BuChE; Exp. 2; inhibitor 2.66 µM; Michaelis-Menten interpolation; from decrease of Vmax; mean Ki in μM; read-out: Ki MM
Answers are plain numbers, in µM.

Problem: // lookup Ki for `C=C(C)[C@@H]1CCC(C)=C[C@H]1c1c(O)cc(CCCCC)c(C(=O)O)c1O`
Solution: 6.4

Further cases:
Problem: Give the measured Ki of `CCCCCc1cc(O)c(C/C=C(\C)CCC=C(C)C)c(O)c1C(=O)O` .
Solution: 14

----------
Kindly state Ki for each of the entries shown.
# systemName: Acetylcholinesterase from Electrophorus electricus AChE (Electrophorus electricus)
# Construct: purchased Sigma-Aldrich
# assayRemarks: Cholinesterase activity by the Elmann method, kinetic parameters and Ki on AChE
# Assay type: biochemical
# statedConditions: AChE; inhibitor 3.00 µM; Lineweaver-Burk equation; from increase of Km; mean Ki in μM; read-out: Ki LB
Numbers only, in µM.

Problem: Can you look up the measured Ki of `C=C(C)[C@@H]1CCC(C)=C[C@H]1c1c(O)cc(CCCCC)c(C(=O)O)c1O` for me?
Solution: 10.6

// next item, Ki requested
Problem: Item under review: `CCCCCc1cc(O)c(C/C=C(\C)CCC=C(C)C)c(O)c1C(=O)O` . Reported Ki?
Solution: 6.5

----------
The following compounds each carry a recorded IC50 for mouse BACE-1 (Mus musculus, UniProt P56818).
Give bare numbers, in µM.

Problem: Quick one: IC50 for CCCCCc1cc(O)c(C/C=C(\C)CCC=C(C)C)c(O)c1C(=O)O [CBGA, cannabigerolic acid] ?
Solution: 1.4

New cases:
Problem: Give the measured IC50 of C=C(C)[C@@H]1CCC(C)=C[C@H]1c1c(O)cc(CCCCC)c(C(=O)O)c1O [CBDA, cannabidiolic acid] .
Solution: 6.1

----------
# systemName: Acetylcholinesterase from Electrophorus electricus AChE (Electrophorus electricus, UniProt O42275)
# Construct: purchased Sigma-Aldrich
# Sequence (O42275 24-633): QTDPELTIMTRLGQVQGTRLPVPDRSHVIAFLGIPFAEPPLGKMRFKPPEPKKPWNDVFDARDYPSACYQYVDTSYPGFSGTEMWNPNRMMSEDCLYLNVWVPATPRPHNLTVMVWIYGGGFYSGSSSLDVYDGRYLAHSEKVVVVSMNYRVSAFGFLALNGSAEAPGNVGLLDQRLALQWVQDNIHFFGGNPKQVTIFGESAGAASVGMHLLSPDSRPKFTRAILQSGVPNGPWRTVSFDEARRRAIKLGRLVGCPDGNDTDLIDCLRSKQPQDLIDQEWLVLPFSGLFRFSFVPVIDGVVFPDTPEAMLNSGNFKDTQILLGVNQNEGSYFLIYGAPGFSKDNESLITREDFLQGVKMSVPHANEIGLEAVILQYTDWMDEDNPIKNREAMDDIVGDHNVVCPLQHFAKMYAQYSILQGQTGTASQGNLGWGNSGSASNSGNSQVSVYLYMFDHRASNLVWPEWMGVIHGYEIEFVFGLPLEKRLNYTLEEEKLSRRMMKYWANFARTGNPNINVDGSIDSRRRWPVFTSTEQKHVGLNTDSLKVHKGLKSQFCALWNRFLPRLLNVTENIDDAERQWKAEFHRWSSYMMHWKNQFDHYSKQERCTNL
# assayRemarks: Cholinesterase activity by the Elmann method, kinetic parameters and Ki on AChE
# Type: biochemical
# statedConditions: AChE; inhibitor 1.75 µM; Michaelis-Menten interpolation; from increase of Km; mean Ki in μM; read-out: Ki MM
quantityMeasured: Ki

Problem: So what does the record say about Ki for `C=C(C)[C@@H]1CCC(C)=C[C@H]1c1c(O)cc(CCCCC)c(C(=O)O)c1O` ?
Solution: 13.9 µM

----------
# systemName: Acetylcholinesterase from Electrophorus electricus AChE (Electrophorus electricus)
# Construct: purchased Sigma-Aldrich
# assayRemarks: Cholinesterase activity by the Elmann method, kinetic parameters and Ki on AChE
# Assay type: biochemical
# statedConditions: AChE; inhibitor 2.50 µM; Michaelis-Menten interpolation; from increase of Km; mean Ki in μM; read-out: Ki MM
quantityMeasured: Ki (µM)
Answers are plain numbers, in µM.

Problem: Need Ki of CCCCCc1cc(O)c(C/C=C(\C)CCC=C(C)C)c(O)c1C(=O)O [CBGA, cannabigerolic acid] , thanks.
Solution: 12.2

----------
# systemName: butirrylcholinesterase from equine serum BuChE (Equus caballus)
# Construct: purchased Sigma-Aldrich; host or cells: equine serum
# assayRemarks: Cholinesterase activity by the Elmann method, kinetic parameters and Ki on BuChE
# Format: biochemical
# statedConditions: BuChE; Exp. 1; inhibitor 10 µM; Lineweaver-Burk equation; from decrease of Vmax; mean Ki in μM; read-out: Ki LB
quantityMeasured: Ki (µM)
Answers are plain numbers, in µM.

Consider the following items and state reported Ki for each.
1. C=C(C)[C@@H]1CCC(C)=C[C@H]1c1c(O)cc(CCCCC)c(C(=O)O)c1O [CBDA, cannabidiolic acid]
2. CCCCCc1cc(O)c(C/C=C(\C)CCC=C(C)C)c(O)c1C(=O)O [CBGA, cannabigerolic acid]

Solution:
6.1
39.2

----------
# systemName: butirrylcholinesterase from equine serum BuChE (Equus caballus, UniProt P81908)
# Construct: purchased Sigma-Aldrich; host or cells: equine serum
# Sequence (P81908 whole entry): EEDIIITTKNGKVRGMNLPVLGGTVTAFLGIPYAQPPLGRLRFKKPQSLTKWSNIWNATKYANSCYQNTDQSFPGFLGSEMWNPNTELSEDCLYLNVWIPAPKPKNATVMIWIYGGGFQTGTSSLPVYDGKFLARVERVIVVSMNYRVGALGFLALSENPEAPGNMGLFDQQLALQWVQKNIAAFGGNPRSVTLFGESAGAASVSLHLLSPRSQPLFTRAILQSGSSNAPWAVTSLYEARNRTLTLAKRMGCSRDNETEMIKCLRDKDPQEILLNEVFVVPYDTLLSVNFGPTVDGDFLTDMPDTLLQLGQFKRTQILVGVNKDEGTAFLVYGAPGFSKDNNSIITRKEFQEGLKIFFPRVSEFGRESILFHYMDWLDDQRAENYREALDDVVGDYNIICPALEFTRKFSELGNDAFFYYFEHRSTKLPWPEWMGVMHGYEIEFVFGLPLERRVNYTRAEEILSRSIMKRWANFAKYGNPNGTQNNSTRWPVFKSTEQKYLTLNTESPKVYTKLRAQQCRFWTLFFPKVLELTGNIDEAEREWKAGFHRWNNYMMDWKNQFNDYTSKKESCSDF
# assayRemarks: Cholinesterase activity by the Elmann method, kinetic parameters and Ki on BuChE
# Type: biochemical
# statedConditions: mean over experiments; n = 4; noncompetitive inhibition; read-out: calculated Ki, BuChE
quantityMeasured: Ki (µM)
One number for each entry, in µM.

Problem: Fill blank: measured Ki of the molecule C=C(C)[C@@H]1CCC(C)=C[C@H]1c1c(O)cc(CCCCC)c(C(=O)O)c1O [CBDA, cannabidiolic acid] is ____.
Solution: 6.7

More entries:
Problem: Please give the measured Ki for this molecule: CCCCCc1cc(O)c(C/C=C(\C)CCC=C(C)C)c(O)c1C(=O)O [CBGA, cannabigerolic acid]
Solution: 23.3

Data origin: paper PMC11745148
